experimental.system: Neuropeptide Y receptor type 5 (Homo sapiens, UniProt Q15761)
Sequence (Q15761 whole entry): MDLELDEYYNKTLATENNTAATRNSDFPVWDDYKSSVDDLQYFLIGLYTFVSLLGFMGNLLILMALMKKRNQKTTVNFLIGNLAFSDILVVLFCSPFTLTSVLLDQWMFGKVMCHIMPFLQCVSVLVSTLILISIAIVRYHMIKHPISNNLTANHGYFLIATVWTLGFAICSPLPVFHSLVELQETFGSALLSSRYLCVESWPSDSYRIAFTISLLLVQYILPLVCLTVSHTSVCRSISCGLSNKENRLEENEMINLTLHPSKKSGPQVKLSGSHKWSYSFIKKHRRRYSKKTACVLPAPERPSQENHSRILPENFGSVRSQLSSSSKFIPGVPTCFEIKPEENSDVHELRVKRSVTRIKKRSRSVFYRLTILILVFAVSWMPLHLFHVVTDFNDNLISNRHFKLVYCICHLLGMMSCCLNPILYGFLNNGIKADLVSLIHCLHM
method.notes: Displacement of [3H]propionyl-pNPY from human Y5 receptor expressed in human HEC1B cells
Assay type: cell-based
condition.notes: read-out: Ki
The substances listed here are annotated with their Ki.

| substance | Ki |
| --- | --- |
| Ac-RGYRLRW-NH2 | > 1 µM |
| Ac-RGWRLRY-NH2 | > 10 µM |
| Ac-RFRLRY-NH2 | > 1 µM |
| H-RYRWRY-NH2 | > 10 µM |
| Ac-RGYRWRY-NH2 | > 3 µM |
| Ac-RGRLRY-NH2 | > 3 µM |
